# assay_target: human RXFP1 (Homo sapiens, UniProt Q9HBX9)
# Sequence (Q9HBX9 1-757): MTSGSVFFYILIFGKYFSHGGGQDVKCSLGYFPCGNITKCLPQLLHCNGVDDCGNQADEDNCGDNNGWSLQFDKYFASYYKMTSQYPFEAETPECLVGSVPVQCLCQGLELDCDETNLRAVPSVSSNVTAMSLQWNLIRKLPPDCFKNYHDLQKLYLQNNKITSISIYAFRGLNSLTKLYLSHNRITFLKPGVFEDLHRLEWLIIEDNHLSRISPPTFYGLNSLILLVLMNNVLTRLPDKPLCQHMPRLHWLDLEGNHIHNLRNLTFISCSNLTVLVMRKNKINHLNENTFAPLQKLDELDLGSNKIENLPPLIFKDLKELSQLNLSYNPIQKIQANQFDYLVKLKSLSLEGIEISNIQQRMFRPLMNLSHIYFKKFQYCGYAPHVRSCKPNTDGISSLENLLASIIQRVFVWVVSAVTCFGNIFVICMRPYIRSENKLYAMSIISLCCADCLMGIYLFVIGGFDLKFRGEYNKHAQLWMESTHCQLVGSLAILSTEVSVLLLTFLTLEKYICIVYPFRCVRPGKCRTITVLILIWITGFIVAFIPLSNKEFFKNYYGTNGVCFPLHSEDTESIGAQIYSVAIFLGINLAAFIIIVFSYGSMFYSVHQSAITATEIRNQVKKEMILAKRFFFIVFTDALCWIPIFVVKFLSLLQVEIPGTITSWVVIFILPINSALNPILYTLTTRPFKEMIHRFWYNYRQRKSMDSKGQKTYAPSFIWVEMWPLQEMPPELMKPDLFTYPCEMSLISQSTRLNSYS
# test_details: hRXFP1 HEK293 cAMP assay (HTRF)
# assay_conditions: HEK293 cells stably expressing human RXFP1, 30 min at room temperature
pEC50: −log10 of the molar value.
experimental_endpoint: pEC50

P = COC(=O)/C=C\c1ccc(OC)c(C(=O)N[C@H]2[C@@H](C(=O)Nc3ccc(F)c(C(F)(F)F)c3)[C@H]3CC[C@@H]2/C3=C\C(F)(F)F)c1
Q = CCCC/C=C1\C2CCC1[C@H](C(=O)Nc1ccc(F)c(C(F)(F)F)c1)[C@@H]2NC(=O)c1cc(CCC(C)(C)O)ccc1OC (stereo partly drawn)
R = COc1ccc(C(=O)N2CC3(COC3)C2)cc1C(=O)N[C@H]1[C@@H](C(=O)Nc2ccc(F)c(C(F)(F)F)c2)[C@H]2CC[C@@H]1/C2=C\C1CC1
Incoming: From the records above, write out the order of decreasing pEC50. # list labels per requested ordering
Outgoing: Q, R, P
(Q: 7.35, R: 6.89, P: 6.22)
